# Tested on: D Morganii DR 062
# assay: MIC by agar-dilution technique, Diagnostic Sensitivity Test
# Assay type: cell-based
# measurementContext: D Morganii DR 062; agar-dilution, inoculum 10^4 CFU/spot; read-out: MIC
Where a name gives a salt, the structure may show the parent alone.
Consider the following compounds; for each one, report its MIC.
Give bare numbers, in µg/mL.

CO/N=C(\C(=O)N[C@@H]1C(=O)N2C(C(=O)O)=C(CSc3nc(=O)c(=O)[nH]n3C)CS[C@H]12)c1csc(N)n1 [ceftriaxone, reference compound] = 1
C[C@@H](O)[C@H]1C(=O)N2C(C(=O)O)=C(S[C@@H]3CN[C@H](C(=O)Nc4ccc(C(=O)O)cc4O)C3)[C@H](C)[C@H]12 = 0.02
C[C@@H](O)[C@H]1C(=O)N2C(C(=O)O)=C(S[C@@H]3CN[C@H](C(=O)Nc4cc(C(=O)O)ccc4O)C3)[C@H](C)[C@H]12 = 0.06
C[C@@H](O)[C@H]1C(=O)N2C(C(=O)O)=C(S[C@@H]3CN[C@H](C(=O)Nc4ccc(C(=O)O)cc4C(=O)O)C3)[C@H](C)[C@H]12 = 0.02

Query compound follows.
(Q) Sample COc1ccc(NC(=O)[C@@H]2C[C@H](SC3=C(C(=O)O)N4C(=O)[C@H]([C@@H](C)O)[C@H]4[C@H]3C)CN2)c(C(=O)O)c1 [Example 31, dipotassium salt] — what was its MIC?
(A) 0.06

* * *

What follows is a collection of MIC values obtained with B. fragilis AMP-S.
One number for each entry, in µg/mL.

Give measured MIC for every item shown.
1. CO/N=C(\C(=O)N[C@@H]1C(=O)N2C(C(=O)O)=C(CSc3nc(=O)c(=O)[nH]n3C)CS[C@H]12)c1csc(N)n1 [ceftriaxone, reference compound]
2. C[C@@H](O)[C@H]1C(=O)N2C(C(=O)O)=C(S[C@@H]3CN[C@H](C(=O)Nc4cccc(C(=O)O)c4C(=O)O)C3)[C@H](C)[C@H]12 [Example 4]
3. C[C@@H](O)[C@H]1C(=O)N2C(C(=O)O)=C(S[C@@H]3CN[C@H](C(=O)Nc4ccccc4C(=O)O)C3)[C@H](C)[C@H]12 [Example 5]

(A)
2
0.13
0.25

* * *

Let's go through some MIC measurements on S. aureus Oxford together.

C[C@@H](O)[C@H]1C(=O)N2C(C(=O)O)=C(S[C@@H]3CN[C@H](C(=O)Nc4ccc(C(=O)O)cc4O)C3)[C@H](C)[C@H]12 = 0.13 µg/mL
C[C@@H](O)[C@H]1C(=O)N2C(C(=O)O)=C(S[C@@H]3CN[C@H](C(=O)Nc4ccccc4C(=O)O)C3)[C@H](C)[C@H]12 = 0.06 µg/mL

In the following, a different molecule is considered.
(Q) Form field: reported MIC of `C[C@@H](O)[C@H]1C(=O)N2C(C(=O)O)=C(S[C@@H]3CN[C@H](C(=O)Nc4ccc(C(=O)O)cc4C(=O)O)C3)[C@H](C)[C@H]12`
(A) 0.25 µg/mL

* * *

Below are MIC values recorded for E. coli DCO.
Counter-ions that a name gives are not always drawn.
Numbers only, in µg/mL.

# count of solved cases: 6
C[C@@H](O)[C@H]1C(=O)N2C(C(=O)O)=C(S[C@@H]3CN[C@H](C(=O)Nc4ccc(C(=O)O)cc4C(=O)O)C3)[C@H](C)[C@H]12 = 0.02
COc1ccc(NC(=O)[C@@H]2C[C@H](SC3=C(C(=O)O)N4C(=O)[C@H]([C@@H](C)O)[C@H]4[C@H]3C)CN2)c(C(=O)O)c1 [Example 31, dipotassium salt] = 0.02
CO/N=C(\C(=O)N[C@@H]1C(=O)N2C(C(=O)O)=C(CSc3nc(=O)c(=O)[nH]n3C)CS[C@H]12)c1csc(N)n1 [ceftriaxone, reference compound] = 0.03
C[C@@H](O)[C@H]1C(=O)N2C(C(=O)O)=C(S[C@@H]3CN[C@H](C(=O)Nc4ccccc4C(=O)O)C3)[C@H](C)[C@H]12 = 0.03
C[C@@H](O)[C@H]1C(=O)N2C(C(=O)O)=C(S[C@@H]3CN[C@H](C(=O)Nc4ccc(C(=O)O)cc4O)C3)[C@H](C)[C@H]12 = 0.01
C[C@@H](O)[C@H]1C(=O)N2C(C(=O)O)=C(S[C@@H]3CN[C@H](C(=O)Nc4cccc(C(=O)O)c4C(=O)O)C3)[C@H](C)[C@H]12 = 0.02

(Q) What MIC value was documented for this molecule, `C[C@@H](O)[C@H]1C(=O)N2C(C(=O)O)=C(S[C@@H]3CN[C@H](C(=O)Nc4cc(C(=O)O)ccc4O)C3)[C@H](C)[C@H]12` ?
(A) 0.03
